This collection of values is drawn from PubChem BioAssay (NCI).

Entries annotated with measured growth inhibition
Test Details: NCI Yeast Anticancer Drug Screen. Data for the rad50 strain (AID 155);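 also: 0% = growth of vehicle-only cultures of the same strain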
Run Conditions: S. cerevisiae rad50 strain growth inhibition; at 50.0 µM; hits give high values
About 79,000 compounds went through this panel and 15% of them were active in at least one assay; those are over-represented in the sample as a whole.
Could you give me the number in %? Just the number is fine.

Task: // returns reported growth inhibition for input CN(/N=C/c1ccc(Cl)c(Cl)c1)C1=NCCCCN1
Output: 1.45

New cases:
Task: // returns reported growth inhibition for input CCCC(F)C(=O)OCC (centres undefined)
Output: 11.5

Task: // returns reported growth inhibition for input CCNc1nc2c(N)ncnc2n1C1OC(CO)C(O)C1O (centres undefined)
Output: 12.8

Task: // returns reported growth inhibition for input NC(CCc1ccc2c(c1)OCO2)C(=O)O (centres undefined)
Output: 5.35

Task: // returns reported growth inhibition for input Cc1ccc(S(=O)(=O)N/N=C2/C(=N/NS(=O)(=O)c3ccc(C)cc3)C3CCC2C3)cc1
Output: 6.7

Task: // returns reported growth inhibition for input O=C(c1ccccc1)c1ccc(Cl)c(Cl)c1
Output: -5.3

Task: // returns reported growth inhibition for input Cc1cc2c(C(C)C)c(O)c(O)c(C=Nc3ccccc3O)c2c(O)c1-c1c(C)cc2c(C(C)C)c(O)c(O)c(C=Nc3ccccc3O)c2c1O
Output: -25.3

Task: // returns reported growth inhibition for input Cc1cc2c(c(C(=O)NCCC(=O)O)c1)Oc1c(cc(C)cc1C(=O)NCCC(=O)O)S2
Output: -26.9

Task: // returns reported growth inhibition for input O=C(O)c1cnc2cc3c(cc2c1Nc1cccc(C(F)(F)F)c1)OCO3
Output: 29

Task: // returns reported growth inhibition for input CCCCCOC(C)(OCCCCC)OCCCCC
Output: 7

Task: // returns reported growth inhibition for input Cc1ccc(CCCC(N)=O)cc1
Output: 32.1

Task: // returns reported growth inhibition for input CC(=O)N(C)N=Nc1ccc(C(F)(F)F)cc1
Output: -7.7

Task: // returns reported growth inhibition for input COc1ccc2c(c1)C(=O)N1CCOC1C2C(=O)O (centres undefined)
Output: 0.1

Task: // returns reported growth inhibition for input Cn1c(=O)c2[nH]c(SCc3ccccn3)nc2n(C)c1=S
Output: 6.05

Task: // returns reported growth inhibition for input CC(C)=C1C2CCC1[C@H](COS(C)(=O)=O)[C@@H]2COS(C)(=O)=O
Output: -6.7
